Entry source: patent US8940909B2

- Tested on: Listeria monocytogenes (4b) 290
- test-details: IO staining of colonies of beta-D-galactosidase positive/negative bacteria (Table IVb); also: key: −: absent; +/−: weak; +: strong; ++: very strong
- Format: cell-based
- condition-set: Listeria monocytogenes (4b) strain 290, b-gal −; 24 h on Nutrient Agar, 150 mg/l indicator, 100 mg/l IPTG
reported-property: F: Fluorescence of colonies

Task item: Quick one: F: Fluorescence of colonies for O=C(c1ccccc1)c1ccccc1-n1cc(O[C@@H]2O[C@H](CO)[C@H](O)[C@H](O)[C@H]2O)c2ccc(Cl)cc21 [Indicator I21a] ?
Reply: −

Task item: Value lookup for F: Fluorescence of colonies; key = CC(=O)c1ccccc1-n1cc(O[C@@H]2O[C@H](CO)[C@H](O)[C@H](O)[C@H]2O)c2ccc(Cl)cc21 [Indicator I16a]
Reply: −

Task item: Which F: Fluorescence of colonies is reported for this compound? COc1ccc(C(=O)c2ccccc2-n2cc(O[C@@H]3O[C@H](CO)[C@H](O)[C@H](O)[C@H]3O)c3ccccc32)c(OC)c1 [Indicator I25a]
Reply: −

---

- System: Aeromonas hydrophila 292
- test-details: IO staining of colonies of beta-D-galactosidase positive/negative bacteria (Table IVb)
- Assay type: cell-based
- condition-set: Aeromonas hydrophila strain 292, b-gal +; 24 h on Nutrient Agar, 150 mg/l indicator, 100 mg/l IPTG
reported-property: F: Fluorescence of colonies

Some compounds with known F: Fluorescence of colonies results, for comparison:
Task item: Request the reported F: Fluorescence of colonies associated with Cn1cccc1C(=O)c1ccccc1-n1cc(O[C@@H]2O[C@H](CO)[C@H](O)[C@H](O)[C@H]2O)c2ccc(Cl)cc21 [Indicator I31a]
Reply: −

Task item: Request the reported F: Fluorescence of colonies associated with COc1ccc(C(=O)c2ccccc2-n2cc(O[C@@H]3O[C@H](CO)[C@H](O)[C@H](O)[C@H]3O)c3c(Cl)c(Br)ccc32)c(OC)c1 [Indicator I28a]
Reply: −

Task item: Could you share which F: Fluorescence of colonies value was measured for CC(=O)c1ccccc1-n1cc(O[C@@H]2O[C@H](CO)[C@H](O)[C@H](O)[C@H]2O)c2ccc(Cl)cc21 [Indicator I16a] ?
Reply: +

Task item: Would you kindly share the measured F: Fluorescence of colonies for O=C(c1ccccc1)c1ccccc1-n1cc(O[C@@H]2O[C@H](CO)[C@H](O)[C@H](O)[C@H]2O)c2c(Cl)c(Br)ccc21 [Indicator I22a] ?
Reply: +/−

Task item: State the recorded F: Fluorescence of colonies for this entry: COc1ccc(C(=O)c2ccccc2-n2cc(O[C@@H]3O[C@H](CO)[C@H](O)[C@H](O)[C@H]3O)c3ccccc32)c(OC)c1 [Indicator I25a]
Reply: +/−

Next:
Task item: Look up F: Fluorescence of colonies: COc1ccc(C(=O)c2ccccc2-n2cc(O[C@@H]3O[C@H](CO)[C@H](O)[C@H](O)[C@H]3O)c3ccc(Cl)cc32)c(OC)c1 [Indicator I27a]
Reply: +

Task item: Param item = O=C(c1ccccc1)c1ccccc1-n1cc(O[C@@H]2O[C@H](CO)[C@H](O)[C@H](O)[C@H]2O)c2ccc(Cl)cc21 [Indicator I21a] ; retrieve measured F: Fluorescence of colonies.
Reply: +
